Just for reference, patent US5438052A is where these values come from.

- Tested on: P. aeruginosa 799/WT
- method: Minimum inhibitory concentration in vitro, agar dilution method
- Assay type: cell-based
- test-parameters: Pseudomonas aeruginosa; P. aeruginosa 799/WT, agar dilution; read-out: MIC
Please provide measured MIC for the entries that follow.
Give bare numbers, in µg/mL.

Answered examples (3):
Short answer on P. aeruginosa 799/WT for Cc1cc(SCC2=C(C(=O)O)N3C(=O)[C@@H](NC(=O)/C(=N\OC(C)(C)C(=O)NO)c4csc(N)n4)[C@H]3SC2)n2nc(CNS(=O)(=O)c3ccc(O)c(O)c3)nc2n1 , MIC: 0.5

Short answer on P. aeruginosa 799/WT for Cc1ncc(-c2ccc(O)c(O)c2)c(SCC2=C(C(=O)O)N3C(=O)[C@@H](NC(=O)/C(=N\OC(C)(C)C(=O)NO)c4csc(N)n4)[C@H]3SC2)n1 [Example 19b] , MIC: 0.25

Short answer on P. aeruginosa 799/WT for Cc1cc(SCC2=C(C(=O)O)N3C(=O)[C@@H](NC(=O)/C(=N\OCc4nc(=O)c(O)c[nH]4)c4csc(N)n4)[C@H]3SC2)n2nc(CNS(=O)(=O)c3ccc(O)c(O)c3)nc2n1 , MIC: 0.12

Note: attention shifts to another entry.
Short answer on P. aeruginosa 799/WT for Nc1nc(/C(=N/OCc2ccc(O)c(O)c2F)C(=O)N[C@@H]2C(=O)N3C(C(=O)O)=C(CSc4nc(-c5ccccc5)ncc4-c4ccc(O)c(O)c4)CS[C@H]23)cs1 , MIC: 0.5

---

- Test system: P. aeruginosa MK1184
- method: Minimum inhibitory concentration in vitro, agar dilution method
- Type: cell-based
- test-parameters: Pseudomonas aeruginosa; P. aeruginosa MK1184, agar dilution; read-out: MIC
Labelling: MIC reported below 8 µg/mL becomes satisfied; at or above becomes not satisfied.

Asked: Is MIC strictly under 8 µg/mL for the entry CC(C)(O/N=C(\C(=O)N[C@@H]1C(=O)N2C(C(=O)O)=C(CSc3ncncc3-c3ccc(O)c(O)c3)CS[C@H]12)c1csc(N)n1)C(=O)NO [Example 19a] ?
Given back: not satisfied

Asked: Is MIC strictly under 8 µg/mL for the entry Nc1nc(/C(=N/OCc2ccc(O)c(O)c2F)C(=O)N[C@@H]2C(=O)N3C(C(=O)O)=C(CSc4nc(-c5ccccc5)ncc4-c4ccc(O)c(O)c4)CS[C@H]23)cs1 ?
Given back: not satisfied

Asked: Is MIC strictly under 8 µg/mL for the entry Nc1nc(/C(=N/OCc2ccc(O)c(O)c2)C(=O)N[C@@H]2C(=O)N3C(C(=O)O)=C(CS(=O)(=O)c4ccc(O)c(O)c4)CS[C@H]23)cs1 ?
Given back: not satisfied

Asked: Is MIC strictly under 8 µg/mL for the entry Cc1cc(SCC2=C(C(=O)O)N3C(=O)[C@@H](NC(=O)/C(=N\OCc4ccc(O)c(O)c4F)c4csc(N)n4)[C@H]3SC2)n2nc(COC(=O)c3ccc(O)c(O)c3)nc2n1 ?
Given back: satisfied

Asked: Is MIC strictly under 8 µg/mL for the entry Cc1cc(SCC2=C(C(=O)O)N3C(=O)[C@@H](NC(=O)/C(=N\OC(C)(C)C(=O)NNC(=O)c4ccc(O)c(O)c4)c4csc(N)n4)[C@H]3SC2)n2nc(CS(=O)(=O)c3ccc(O)c(O)c3)nc2n1 ?
Given back: satisfied

Asked: Is MIC strictly under 8 µg/mL for the entry Nc1nc(/C(=N/OCc2cc(=O)c(O)co2)C(=O)N[C@@H]2C(=O)N3C(C(=O)O)=C(CSc4cc(-c5ccc(O)c(O)c5)nc5ccnn45)CS[C@H]23)cs1 ?
Given back: not satisfied

Asked: Is MIC strictly under 8 µg/mL for the entry Cc1cc(SCC2=C(C(=O)O)N3C(=O)[C@@H](NC(=O)/C(=N\OC(C)(C)C(=O)NO)c4csc(N)n4)[C@H]3SC2)n2nc(CNS(=O)(=O)c3ccc(O)c(O)c3)nc2n1 ?
Given back: satisfied

Note: attention shifts to another entry.
Asked: Is MIC strictly under 8 µg/mL for the entry CC(C)(O/N=C(\C(=O)N[C@@H]1C(=O)N2C(C(=O)O)=C(CS(=O)(=O)c3ccc(O)c(O)c3)CS[C@H]12)c1csc(N)n1)C(=O)NNC(=O)c1ccc(O)c(O)c1 ?
Given back: not satisfied

---

- System: S. aureus 6538
- method: Minimum inhibitory concentration in vitro, agar dilution method
- Assay type: cell-based
- test-parameters: Staphylococcus aureus, 6538
readout-label: MIC (µg/mL)
Numbers only, in µg/mL.

Recorded MIC (molecule Cc1cc(SCC2=C(C(=O)[O-])N3C(=O)[C@@H](NC(=O)/C(=N\OCc4ccc(O)c(O)c4)c4csc(N)n4)[C@H]3SC2)n2nc(COC(=O)c3ccc(O)c(O)c3)nc2n1.[Na+] ): 4

Batch lookup, MIC per entry.
1. Cc1cc(SCC2=C(C(=O)[O-])N3C(=O)[C@@H](NC(=O)/C(=N\OCS(=O)(=O)c4ccc(O)c(O)c4)c4csc(N)n4)[C@H]3SC2)n2nc(CNS(=O)(=O)c3ccc(O)c(O)c3)nc2n1.[Na+]
2. Cc1cc(SCC2=C(C(=O)[O-])N3C(=O)[C@@H](NC(=O)/C(=N\OCS(=O)(=O)c4ccc(O)c(O)c4)c4csc(N)n4)[C@H]3SC2)n2nc(COC(=O)c3ccc(O)c(O)c3)nc2n1.[Na+]
3. Cc1cc(SCC2=C(C(=O)[O-])N3C(=O)[C@@H](NC(=O)/C(=N\OCS(=O)(=O)c4ccc(O)c(O)c4)c4csc(N)n4)[C@H]3SC2)n2nc(CS(=O)(=O)c3ccc(O)c(O)c3)nc2n1.[Na+]
4. Cc1cc(SCC2=C(C(=O)[O-])N3C(=O)[C@@H](NC(=O)/C(=N\OCc4nc(=O)c(O)c[nH]4)c4csc(N)n4)[C@H]3SC2)n2nc(COC(=O)c3ccc(O)c(O)c3)nc2n1.[Na+]

Given back:
1. 32
2. 32
3. 32
4. 16

---

- Tested on: P. aeruginosa 799/WT
- method: Minimum inhibitory concentration in vitro, agar dilution method
- Format: cell-based
- test-parameters: Pseudomonas aeruginosa; P. aeruginosa 799/WT, agar dilution; read-out: MIC
Please provide measured MIC for the entries that follow.

Answered examples (3):
Recorded MIC (molecule CC(C)(O/N=C(\C(=O)N[C@@H]1C(=O)N2C(C(=O)O)=C(CSc3ncncc3-c3ccc(O)c(O)c3)CS[C@H]12)c1csc(N)n1)C(=O)NO [Example 19a] ): 0.25 µg/mL

Recorded MIC (molecule Nc1nc(/C(=N/OCc2nc(=O)c(O)c[nH]2)C(=O)N[C@@H]2C(=O)N3C(C(=O)O)=C(CSc4nc(-c5ccccc5)ncc4-c4ccc(O)c(O)c4)CS[C@H]23)cs1 [Example 16] ): 0.5 µg/mL

Recorded MIC (molecule CC(C)(O/N=C(\C(=O)N[C@@H]1C(=O)N2C(C(=O)O)=C(CSc3nc(-c4ccccc4)ncc3-c3ccc(O)c(O)c3)CS[C@H]12)c1csc(N)n1)C(=O)NO [Example 17] ): 2 µg/mL

Batch lookup, MIC per entry.
1. CC(C)(O/N=C(\C(=O)N[C@@H]1C(=O)N2C(C(=O)O)=C(CSc3nnc(-c4ccc(O)c(O)c4)o3)CS[C@H]12)c1csc(N)n1)C(=O)NNC(=O)c1ccc(O)c(O)c1 [Example 45]
2. CC(C)(O/N=C(\C(=O)N[C@@H]1C(=O)N2C(C(=O)O)=C(CSc3nc(-c4ccccc4)ncc3-c3ccc(O)c(O)c3)CS[C@H]12)c1csc(N)n1)C(=O)NNC(=O)c1ccc(O)c(O)c1 [Example 46]

Given back:
["0.06 µg/mL", "0.25 µg/mL"]

---

- Test system: P. aeruginosa MK1184
- method: Minimum inhibitory concentration in vitro, agar dilution method
- Format: cell-based
- test-parameters: Pseudomonas aeruginosa; P. aeruginosa MK1184, agar dilution; read-out: MIC
readout-label: MIC (µg/mL)
Give bare numbers, in µg/mL.

Recorded MIC (compound Nc1nc(/C(=N/OCc2cc(Cl)c(O)c(O)c2Cl)C(=O)N[C@@H]2C(=O)N3C(C(=O)O)=C(CSc4nc(-c5ccccc5)ncc4-c4ccc(O)c(O)c4)CS[C@H]23)cs1 ): 2

Continuing:
Recorded MIC (compound CC(C)(O/N=C(\C(=O)N[C@@H]1C(=O)N2C(C(=O)O)=C(CSc3nnc(-c4ccc(O)c(O)c4)o3)CS[C@H]12)c1csc(N)n1)C(=O)NNC(=O)c1ccc(O)c(O)c1 ): 1

---

- Tested on: P. aeruginosa 27853
- method: Minimum inhibitory concentration in vitro, agar dilution method
- Assay type: cell-based
- test-parameters: Pseudomonas aeruginosa, 27853
Please provide measured MIC for the entries that follow.
Give bare numbers, in µg/mL.

Batch lookup, MIC per entry.
1. Cc1cc(SCC2=C(C(=O)[O-])N3C(=O)[C@@H](NC(=O)/C(=N\OCS(=O)(=O)c4ccc(O)c(O)c4)c4csc(N)n4)[C@H]3SC2)n2nc(COC(=O)c3ccc(O)c(O)c3)nc2n1.[Na+] [Example 7]
2. Cc1cc(SCC2=C(C(=O)[O-])N3C(=O)[C@@H](NC(=O)/C(=N\OC(C)(C)C(=O)NNC(=O)c4ccc(O)c(O)c4)c4csc(N)n4)[C@H]3SC2)n2nc(CNS(=O)(=O)c3ccc(O)c(O)c3)nc2n1.[Na+] [Example 42]

Given back:
1. 1
2. 0.25
